- target.under.test: mouse CD98hc ectodomain (recombinant) (mouse) (UniProt P10852)
- Sequence (P10852 100-526): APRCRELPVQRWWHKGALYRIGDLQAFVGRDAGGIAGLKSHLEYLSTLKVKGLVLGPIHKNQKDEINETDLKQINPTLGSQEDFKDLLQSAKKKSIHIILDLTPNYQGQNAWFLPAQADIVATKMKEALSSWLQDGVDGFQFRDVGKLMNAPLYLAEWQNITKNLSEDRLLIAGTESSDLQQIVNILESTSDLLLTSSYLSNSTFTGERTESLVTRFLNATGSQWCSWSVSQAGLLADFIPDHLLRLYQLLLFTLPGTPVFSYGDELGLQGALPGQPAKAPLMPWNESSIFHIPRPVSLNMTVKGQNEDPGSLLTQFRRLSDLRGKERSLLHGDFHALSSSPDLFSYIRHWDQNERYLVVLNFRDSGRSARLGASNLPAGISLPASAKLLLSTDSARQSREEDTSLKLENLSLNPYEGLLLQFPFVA
- test.protocol: ELISA, VNAR-hFc in Expi293 medium on coated ectodomain
Exercise: state measured Binding [relative units] (relative units) for each of the binders provided.
Give bare numbers.

[[record]]
binder = "F1 VNAR-hFc fusion (Fc fusion, Bivalent VNAR-Fc, VNAR N-terminal to human IgG1 Fc; Expi293; also called Fl; not shown: human IgG1 Fc (hinge, CH2, CH3) of vector pFUSE-hIgG1e3-Fc2) ARVDQTPQTITKEEGESLTINCVLRVHGRALASTSWYRKKSGSTREETISKGGRYVETVNSGSKSFSLRINDLTVEDSGTYRCNVYGLSSGDIEGVKKIDVYGDGTAVTVNA"
numeric_result = 0.115


Field: next binder
QUERY: Please indicate Binding [relative units] (relative units) recorded for F11 VNAR-hFc fusion (Fc fusion, Bivalent VNAR-Fc, VNAR N-terminal to human IgG1 Fc; Expi293; not shown: human IgG1 Fc (hinge, CH2, CH3) of vector pFUSE-hIgG1e3-Fc2) ARVDQTPQTITKEEGESLTINCVLRGEFYALASTSWYRKKSGSTREETISKGGRYVETVNSGSKSFSLRINDLTVEDSGTYRCNVYGYRIFSPEVKGPNDVYGDGTAVTVNA
RESULT: 0.096
